The origin of these recorded values is ChEMBL document CHEMBL3352137.

# Tested system: G-protein coupled bile acid receptor 1 (Homo sapiens, UniProt Q8TDU6)
# Sequence (Q8TDU6 whole entry): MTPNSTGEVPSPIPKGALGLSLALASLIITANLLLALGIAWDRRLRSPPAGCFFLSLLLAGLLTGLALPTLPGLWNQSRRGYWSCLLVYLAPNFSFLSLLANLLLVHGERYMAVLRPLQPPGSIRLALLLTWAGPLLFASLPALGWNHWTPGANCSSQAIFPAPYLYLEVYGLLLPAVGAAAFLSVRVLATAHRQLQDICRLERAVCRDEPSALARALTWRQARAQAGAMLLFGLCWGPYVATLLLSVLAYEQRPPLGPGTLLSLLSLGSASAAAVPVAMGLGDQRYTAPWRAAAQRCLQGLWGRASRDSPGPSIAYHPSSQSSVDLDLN
# Test description: Agonist activity at human GPBAR1 expressed in HEK293T cells assessed as stimulation of cAMP response element-mediated receptor transactivation by luciferase reporter gene assay
This section presents compounds with their documented EC50 values.
Reported endpoint: EC50

C[C@H](CCO)[C@H]1CC[C@H]2[C@@H]3[C@@H](O)C[C@@H]4C[C@H](O)CC[C@]4(C)[C@H]3CC[C@]12C 24.4 µM
C[C@H](CCCCC(=O)O)[C@H]1CC[C@H]2[C@@H]3[C@@H](O)C[C@@H]4C[C@H](O)CC[C@]4(C)[C@H]3CC[C@]12C 17.2 µM
